The measured values listed here are drawn from the METLIN SMRT retention time set (Domingo-Almenara et al. 2019).

- assay-details: gradient 5% acetonitrile 3 min, to 50% in 2 min, to 85% in 15 min, held 3 min, 100 µL/min
- condition-label: column: Zorbax Extend-C18 2.1 x 50 mm; eluents: water / acetonitrile, 0.1% formic acid
The label is True for RP-LC retention time below 800 s and False for RP-LC retention time equal to or exceeding 800 s.

Use these answered entries as a reference point.
>  <molecule>
O=C(c1cc2ccccc2[nH]1)N1CCCC(c2nnc(C(F)(F)F)o2)C1 (stereo unspecified)

>  <assigned-label>
False

$$$$
>  <molecule>
CCOC(=O)c1sc(NC(=O)C2CC(=O)N(c3n[nH]c4ccccc34)C2)nc1C (stereo unspecified)

>  <assigned-label>
True

$$$$
>  <molecule>
COc1ccc(OC)c(NC(=O)c2sc(-c3cn(C(C)C)c4ncccc34)nc2C)c1

>  <assigned-label>
False

$$$$
>  <molecule>
CCC1Oc2ccc(S(=O)(=O)N3CCC(C(=O)Nc4cc(C)ccc4OC)CC3)cc2NC1=O (stereo unspecified)

>  <assigned-label>
False

$$$$

# next molecule below
Regarding Cc1ccc(-c2cn3c(CC(=O)NCCc4ccccc4)csc3n2)cc1C , kindly confirm whether its RP-LC retention time is beneath 800 s.
False

###

- assay-details: gradient 5% acetonitrile 3 min, to 50% in 2 min, to 85% in 15 min, held 3 min, 100 µL/min
- condition-label: column: Zorbax Extend-C18 2.1 x 50 mm; eluents: water / acetonitrile, 0.1% formic acid
Each entry below carries its reported RP-LC retention time.
Express the result in s but write the number alone.

Observe how each entry below is paired with its result.
>  <cpd-smiles>
O=C1[C@H]2CN(Cc3cccc(OC(F)(F)F)c3)C[C@H]2C(=O)N1Cc1ccc2c(c1)OCO2

>  <RP-LC retention time, s>
969

$$$$
>  <cpd-smiles>
N#Cc1cccc(CN2C[C@@H]3C(=O)N(CCc4ccccc4)C(=O)[C@@H]3C2)c1

>  <RP-LC retention time, s>
849

$$$$
>  <cpd-smiles>
COc1ccc(CNC(=O)NCC2(c3ccc(F)cc3)CC2)cc1

>  <RP-LC retention time, s>
817

$$$$
>  <cpd-smiles>
O=C(CCSc1nnnn1-c1ccc(Cl)cc1)Nc1nccs1

>  <RP-LC retention time, s>
776

$$$$

RP-LC retention time measured on COc1ccc2cc3c(=O)n(-c4ccc(C(=O)O)cc4)nc-3oc2c1 = 891

###

- assay-details: gradient 5% acetonitrile 3 min, to 50% in 2 min, to 85% in 15 min, held 3 min, 100 µL/min
- condition-label: column: Zorbax Extend-C18 2.1 x 50 mm; eluents: water / acetonitrile, 0.1% formic acid
Collected RP-LC retention time values appear next to each entry.
Just the number in s, nothing appended.

Please review the entries below; each comes with its answer.
>  <compound>
CC1CCc2c(sc(NC(=O)Cc3ccc4c(c3)OCO4)c2C#N)C1 (stereo not given)

>  <experimental-result>
1070

$$$$
>  <compound>
Cc1noc(COC2CCCN(C(=O)NCc3ccccc3)C2)n1 (stereo not given)

>  <experimental-result>
684

$$$$
>  <compound>
COc1ccc(NC(=O)Cn2c(C)nc3c(sc4nc(-c5ccccc5)ccc43)c2=O)c(OC)c1

>  <experimental-result>
1040

$$$$
>  <compound>
Fc1ccc(-n2cc(-c3noc(-c4ccccc4F)n3)nn2)cc1

>  <experimental-result>
1040

$$$$

Pending compound:
Recorded RP-LC retention time (compound COc1cccc(-c2ccnc3nc(-c4ccccc4)nn23)c1 ): 919
